// values below are reported MIC
test system: E. faecalis ATCC-21212
recorded_metric: MIC (µg/mL)

> print(dat)
                                   compound  recorded.metric  result.number
1  C[N+](C)(CC[n+]1ccc(SC=CC2=C(C(=O)O)N3C(=O)C(NC(=O)C(=NO)c4csc(N)n4)C3SC2)cc1)CC(N)=O (stereo not drawn) [(c)]              MIC            0.1
2  CO[C@@]1(NC(=O)CSC(F)F)C(=O)N2C(C(=O)O)=C(CSc3nnnn3CCO)CO[C@@H]21 [FMOX, flomoxef, reference compound]              MIC            100
3  C[N+]1(CC[n+]2ccc(SC=CC3=C(C(=O)O)N4C(=O)C(NC(=O)C(=NO)c5csc(N)n5)C4SC3)cc2)CCOCC1 (stereo not drawn) [(f)]              MIC            0.2

###

system: E. faecalis ATCC-21212
// values below are reported MIC
recorded_metric: MIC (µg/mL)

> print(dat)
                                   molecule  recorded.metric  unit.text  result.number
1  CC(=O)C[N+](C)(C)CC[n+]1ccc(SC=CC2=C(C(=O)O)N3C(=O)C(NC(=O)C(=NO)c4csc(N)n4)C3SC2)cc1 (stereo not shown)              MIC      µg/mL            0.2
2  C[N+](C)(C)CC[n+]1ccc(SC=CC2=C(C(=O)O)N3C(=O)C(NC(=O)C(=NO)c4csc(N)n4)C3SC2)cc1 (stereo not shown)              MIC      µg/mL            0.1
3  C[N+](C)(CCO)CC[n+]1ccc(SC=CC2=C(C(=O)O)N3C(=O)C(NC(=O)C(=NO)c4csc(N)n4)C3SC2)cc1 (stereo not shown) [(e)]              MIC      µg/mL            0.1
4  C[N+](C)(C)CC[n+]1ccc(SC=CC2=C(C(=O)O)N3C(=O)C(NC(=O)C(=NOC4CCCC4)c4csc(N)n4)C3SC2)cc1 (stereo not shown)              MIC      µg/mL           0.39
